Data provenance is PubChem BioAssay (NCI).

Consider the following compounds; for each one, report its GI50.
- System: RPMI-8226 leukemia
- assay-procedure: NCI tumour cell line growth inhibition, 48 h

Field GI50 (entry "Cc1cc(C(=O)Nc2ncc(Cc3cccc(C(F)(F)F)c3)s2)c2ccccc2n1" ) reads 2.41 µM

The compound listed as "COC1=CC(=O)c2nc(-c3cccc(C)n3)[nH]c2C1=O" has a reported GI50 of 27 µM

Noted for "NS(=O)(=O)c1ccc(N=Nc2c(O)[nH]c3ccc(-c4cnco4)cc23)cc1" : its GI50 reads > 25 µM

Looking up "COc1cc(/C=C/c2cc(/C=C/c3ccc(O)c(OC)c3)n(C(=O)Nc3ccc(F)c(Cl)c3)n2)ccc1O" , I see its GI50 listed as 0.365 µM

Notebook: "COC(=O)[C@@H](C)CNS(=O)(=O)N(c1cc(C(F)(F)F)cc(C(F)(F)F)c1)C1CCN(Cc2ccc(F)cc2)CC1" , GI50 read as 7.57 µM

GI50 measured on COc1cccc2c1C(=O)c1c(O)c3c(c(O)c1C2=O)C[C@@](O)(C(C)=O)C[C@@H]3OC1OC(C)C(O)C(N)C1Br (stereo not given in full) = 0.0124 µM

Sure, the documented GI50 for "Clc1ccc(C2=Nn3c(COc4ccccc4Cl)nnc3SC2)c(Cl)c1" is 44.7 µM

Sample "COc1cc2c3c(n(CCCNC(=O)OCC4c5ccccc5-c5ccccc54)c(=O)c2cc1OC)-c1cc2c(cc1/C3=C\CCNC(=O)OCC1c3ccccc3-c3ccccc31)OCO2" ; GI50 observed: > 26.3 µM

GI50 reading for "CCCCCCCC/C=C/CCCCCCCC(=O)OC[C@H]1O[C@@H](n2ccc(N)nc2=O)C(F)(F)[C@@H]1O" : 0.128 µM

Per the records, this compound ( "CCOC(=O)[C@@H](N)CCC(=O)N[C@@H](CSCc1ccccc1)C(=O)N[C@@H](C(=O)OCC)c1ccccc1" ) has GI50 equal to 17.8 µM

Form field GI50, entry "COc1ccc(-c2n[nH]nc2-c2cc(OC)c(OC)c(OC)c2)cc1" : < 0.01 µM

Value of measured GI50 for the entry "C[C@@]12CC=C3c4nc(Nc5cccc(O)c5)sc4CC[C@]3(C)[C@H]1CC[C@]1(C)C(=O)CC[C@@H]21" : 0.669 µM

Short answer for "COC(=O)C1=CNC=C(C(=O)OC)C1C1=CC(=O)C(C)=CC1=O" : GI50 was 2.9 µM

What the record says about "N=C1C(c2nc3ccccc3s2)=C(O)CN1c1cc(C(F)(F)F)ccc1Cl" : GI50 is 7.46 µM

The compound listed as "CC(=O)/C(C)=N/NC(=O)c1ccccc1O" has a reported GI50 of > 100 µM

###

- Test system: OVCAR-4 ovarian
- assay-procedure: NCI tumour cell line growth inhibition, 48 h
Provide the reported GI50 of each item.

// recorded GI50 for "COc1ccc(Cn2cc3c(c2-c2ccccc2)CC(C)(C)c2cnoc2-3)cc1" : 5.23 µM

Lab note: measured GI50 of "COc1cc2c3c(n(CCCNC(=O)OCC4c5ccccc5-c5ccccc54)c(=O)c2cc1OC)-c1cc2c(cc1/C3=C\CCNC(=O)OCC1c3ccccc3-c3ccccc31)OCO2" was > 50 µM

So for "Cc1cc(S(=O)(=O)Nc2nnc(-c3ccccc3)c(-c3ccccc3)n2)c(SCC(N)=O)cc1Cl" , the logged GI50 turned out to be 41.5 µM

Summary for this molecule, "C[C@@]12CC=C3c4nc(Nc5cccc(O)c5)sc4CC[C@]3(C)[C@H]1CC[C@]1(C)C(=O)CC[C@@H]21" : GI50 is 2.76 µM

GI50 for "Clc1ccc(C2=Nn3c(COc4ccccc4Cl)nnc3SC2)c(Cl)c1" is 26.9 µM

Value of GI50 reported for the molecule "O=C(NC1=CC(=O)c2ccccc2C1=O)c1ccccc1" is 1.04 µM
